The measured values listed here are drawn from PubChem BioAssay (NCI).

Listed next: entries and their corresponding TGI.
test system: KM12 colon; test: NCI tumour cell line growth inhibition, 48 h

[
  {
    "compound": "COC(=O)C(=O)c1c2ccccc2n2ccc3c4ccccc4[nH]c3c12",
    "modifier-sign": ">",
    "TGI / µM": 10
  },
  {
    "compound": "CCN(CC)CCOc1ccc(/C(=C(\\C)Cc2ccc(OC)cc2)c2ccc(OC(=O)NCc3ccccc3)cc2)cc1",
    "modifier-sign": "=",
    "TGI / µM": 3.89
  },
  {
    "compound": "CCCc1cc2cc(-n3nc(C)c4c3CC(C)(C)CC4=O)cc(NC3CCC(O)CC3)c2c(=O)[nH]1 (configuration not stated)",
    "modifier-sign": ">",
    "TGI / µM": 100
  },
  {
    "compound": "NCC#CCNCCCN1CC1",
    "modifier-sign": ">",
    "TGI / µM": 100
  },
  {
    "compound": "C#CCN=C(N/N=C/c1ccc([N+](=O)[O-])o1)NS(=O)(=O)c1cc(C)c(Cl)cc1SCC(N)=O",
    "modifier-sign": "=",
    "TGI / µM": 38.9
  },
  {
    "compound": "Nc1ncnc(NC2C=C(CO)C(O)C2O)c1[N+](=O)[O-] (configuration not stated)",
    "modifier-sign": ">",
    "TGI / µM": 100
  },
  {
    "compound": "COc1ccc2c(c1)CCc1c(-c3noc4c3CCc3cc(OC)ccc3-4)noc1-2",
    "modifier-sign": ">",
    "TGI / µM": 100
  },
  {
    "compound": "O=C1C2=Cc3ccccc3OC2(O)Oc2cc(O)ccc21 (configuration not stated)",
    "modifier-sign": ">",
    "TGI / µM": 100
  },
  {
    "compound": "COc1ccc(/C(C)=C(\\c2ccc(Cl)cc2)c2ccc(OCCN3CCCC3)cc2)cc1F",
    "modifier-sign": "=",
    "TGI / µM": 4.5
  },
  {
    "compound": "Cc1cc(C)c(O)c(Cc2cccc(Cc3cc(C)cc(C)c3O)c2O)c1",
    "modifier-sign": ">",
    "TGI / µM": 100
  },
  {
    "compound": "CCCCCCCC/C=C/CCCCCCCC1=NC(C)(C)CN1C(C)C",
    "modifier-sign": "=",
    "TGI / µM": 2.97
  },
  {
    "compound": "Nc1nc(N)c2c(n1)NC(c1ccccc1)CC(/C=C/c1ccc(Cl)cc1)=N2 (configuration not stated)",
    "modifier-sign": "=",
    "TGI / µM": 13.6
  }
]

###

Listed next: entries and their corresponding TGI.
test system: CCRF-CEM leukemia; assay: NCI tumour cell line growth inhibition, 48 h

[
  {
    "compound": "COC(=O)CCC(NC(=O)C(C)NC(=O)COC1C(O)C(OC(=O)CCNc2c3ccccc3nc3cccc([N+](=O)[O-])c23)OC(OCc2ccccc2)C1NC(C)=O)C(N)=O (stereo unspecified)",
    "TGI": "> 10 µM"
  },
  {
    "compound": "O=[n+]1c2c(n([O-])c3ccccc31)-c1cccc3cccc-2c13",
    "TGI": "> 100 µM"
  },
  {
    "compound": "Cn1ncc2c(/N=C/c3cccs3)[nH]c(=S)nc21",
    "TGI": "> 100 µM"
  },
  {
    "compound": "C#CCOCn1cnc2c(=S)nc[nH]c21",
    "TGI": "> 100 µM"
  },
  {
    "compound": "CCOC(=O)c1nc2ccccc2nc1NCc1ccc(OC)cc1",
    "TGI": "> 100 µM"
  },
  {
    "compound": "O=C1OCc2c1cc(F)cc2[N+](=O)[O-]",
    "TGI": "> 100 µM"
  }
]

###

test system: HL-60(TB) leukemia; assay: NCI tumour cell line growth inhibition, 48 h

[
  {
    "molecule": "COC(=O)C(=O)c1c2ccccc2n2ccc3c4ccccc4[nH]c3c12",
    "system-tested": "HL-60(TB) leukemia",
    "TGI": "> 10 µM"
  },
  {
    "molecule": "CN(C)C(=O)/N=c1\\ss/c(=N\\C(=S)N(C)C)n1-c1ccccc1",
    "system-tested": "HL-60(TB) leukemia",
    "TGI": "44.8 µM"
  },
  {
    "molecule": "CC1(C)C=C(/C=N/Nc2ccc([N+](=O)[O-])cc2)C(C#N)=C(O)C1(C#N)C#N",
    "system-tested": "HL-60(TB) leukemia",
    "TGI": "> 100 µM"
  },
  {
    "molecule": "CCc1ccccc1NC(=O)CCc1n[nH]c(=S)o1",
    "system-tested": "HL-60(TB) leukemia",
    "TGI": "> 100 µM"
  },
  {
    "molecule": "C#CCOCn1cnc2c(=S)nc[nH]c21",
    "system-tested": "HL-60(TB) leukemia",
    "TGI": "> 100 µM"
  },
  {
    "molecule": "Clc1cc(Cl)c(Cl)c(-c2nc(-c3cccnc3)cs2)c1",
    "system-tested": "HL-60(TB) leukemia",
    "TGI": "> 100 µM"
  },
  {
    "molecule": "O=C1OCc2c1cc(F)cc2[N+](=O)[O-]",
    "system-tested": "HL-60(TB) leukemia",
    "TGI": "> 100 µM"
  },
  {
    "molecule": "COc1[nH]c(C(Cl)(Cl)Cl)c(Cl)c(=O)c1Cl",
    "system-tested": "HL-60(TB) leukemia",
    "TGI": "> 100 µM"
  },
  {
    "molecule": "COC(=O)C1C(C)N1C (stereo not drawn)",
    "system-tested": "HL-60(TB) leukemia",
    "TGI": "> 100 µM"
  },
  {
    "molecule": "NC1CC(=O)c2c(Cl)sc(Cl)c21 (stereo not drawn)",
    "system-tested": "HL-60(TB) leukemia",
    "TGI": "6.09 µM"
  },
  {
    "molecule": "N#CC1=C(S)N(C2OC(CO)C(O)C(O)C2O)C(c2ccccc2)=CC1c1ccccc1 (stereo not drawn)",
    "system-tested": "HL-60(TB) leukemia",
    "TGI": "> 100 µM"
  },
  {
    "molecule": "CCOC(=O)C1CCn2c(nc3c2c(=O)n(C)c(=O)n3C)S1 (stereo not drawn)",
    "system-tested": "HL-60(TB) leukemia",
    "TGI": "> 100 µM"
  },
  {
    "molecule": "O=c1c2ccccc2nc(-c2ccc(Br)cc2)n1NC1OC(CO)C(O)C(O)C1O (stereo not drawn)",
    "system-tested": "HL-60(TB) leukemia",
    "TGI": "> 100 µM"
  }
]

###

Listed next: entries and their corresponding TGI.
tested on: TK-10 renal; assay: NCI tumour cell line growth inhibition, 48 h
assay-readout: TGI

[
  {
    "compound": "CC(=O)CCNc1ccc(-c2cc(-c3ccc(N(C)C)cc3)nc3ccc4ccccc4c23)cc1",
    "assay-readout": "TGI",
    "result": "> 100 µM"
  },
  {
    "compound": "CC1(C)C=C(/C=N/Nc2ccc([N+](=O)[O-])cc2)C(C#N)=C(O)C1(C#N)C#N",
    "assay-readout": "TGI",
    "result": "> 100 µM"
  },
  {
    "compound": "Nc1ncnc2c1ncn2C1C=CC(CP(=O)(O)O)C1 (stereo not drawn)",
    "assay-readout": "TGI",
    "result": "> 100 µM"
  }
]

###

Listed next: entries and their corresponding TGI.
test system: CCRF-CEM leukemia; assay: NCI tumour cell line growth inhibition, 48 h

[
  {
    "compound": "COC(=O)C1C(C)N1C (centres undefined)",
    "TGI": "> 100 µM"
  },
  {
    "compound": "O=C(c1cccc(OCc2ccccc2)c1OCc1ccccc1)N1CCSC1=S",
    "TGI": "24.4 µM"
  },
  {
    "compound": "N=C1N(c2ccccc2)C(=O)C23CCCC2C13N1CCOCC1 (centres undefined)",
    "TGI": "> 100 µM"
  },
  {
    "compound": "COC(=O)c1ccc(N=NN(C)COc2ccc(C#N)cc2)cc1",
    "TGI": "> 100 µM"
  },
  {
    "compound": "Cc1cn(C2CC(O)C(Cn3cc(Cn4ncc(=O)[nH]c4=O)nn3)O2)c(=O)[nH]c1=O (centres undefined)",
    "TGI": "> 100 µM"
  },
  {
    "compound": "CCOC(=O)/C(=C\\NCC(OCC)OCC)c1nc2ccccc2[nH]1",
    "TGI": "> 100 µM"
  },
  {
    "compound": "COc1cc2ccc3c4c(OC)cc(OC)c(OC)c4c(=O)n(C)c3c2cc1OC",
    "TGI": "2.04 µM"
  },
  {
    "compound": "CCOc1ccccc1N=Nc1c(-c2ccccc2)nn(C(=O)CC(=O)Nc2cccc(Cl)c2)c1-c1ccccc1",
    "TGI": "> 100 µM"
  },
  {
    "compound": "OCC1OC(Oc2cc(O)cc(/C=C\\c3ccc(O)cc3)c2)C(O)C(O)C1O (centres undefined)",
    "TGI": "> 100 µM"
  },
  {
    "compound": "O=c1[nH]c(-c2cccc(F)c2)nc2ccccc12",
    "TGI": "> 100 µM"
  },
  {
    "compound": "COc1ccc(CNc2nc3cc(C(F)(F)F)ccc3nc2C(=O)O)cc1OC",
    "TGI": "92.9 µM"
  },
  {
    "compound": "C/C=C/C=N/N(C(=O)c1cc([N+](=O)[O-])cc([N+](=O)[O-])c1)C1=NC(c2ccccc2)C(c2ccccc2)=NN1 (centres undefined)",
    "TGI": "> 100 µM"
  },
  {
    "compound": "COC(=O)C1=CN=C(C(=O)OC)NN1",
    "TGI": "> 100 µM"
  },
  {
    "compound": "Cc1cc(O)c(C(c2cccnc2)c2c(O)cc(C)[nH]c2=O)c(=O)[nH]1",
    "TGI": "> 100 µM"
  }
]
